Molecular target: Ubiquitin carboxyl-terminal hydrolase 1 (Homo sapiens) (UniProt O94782)
Sequence (O94782 whole entry, looked up): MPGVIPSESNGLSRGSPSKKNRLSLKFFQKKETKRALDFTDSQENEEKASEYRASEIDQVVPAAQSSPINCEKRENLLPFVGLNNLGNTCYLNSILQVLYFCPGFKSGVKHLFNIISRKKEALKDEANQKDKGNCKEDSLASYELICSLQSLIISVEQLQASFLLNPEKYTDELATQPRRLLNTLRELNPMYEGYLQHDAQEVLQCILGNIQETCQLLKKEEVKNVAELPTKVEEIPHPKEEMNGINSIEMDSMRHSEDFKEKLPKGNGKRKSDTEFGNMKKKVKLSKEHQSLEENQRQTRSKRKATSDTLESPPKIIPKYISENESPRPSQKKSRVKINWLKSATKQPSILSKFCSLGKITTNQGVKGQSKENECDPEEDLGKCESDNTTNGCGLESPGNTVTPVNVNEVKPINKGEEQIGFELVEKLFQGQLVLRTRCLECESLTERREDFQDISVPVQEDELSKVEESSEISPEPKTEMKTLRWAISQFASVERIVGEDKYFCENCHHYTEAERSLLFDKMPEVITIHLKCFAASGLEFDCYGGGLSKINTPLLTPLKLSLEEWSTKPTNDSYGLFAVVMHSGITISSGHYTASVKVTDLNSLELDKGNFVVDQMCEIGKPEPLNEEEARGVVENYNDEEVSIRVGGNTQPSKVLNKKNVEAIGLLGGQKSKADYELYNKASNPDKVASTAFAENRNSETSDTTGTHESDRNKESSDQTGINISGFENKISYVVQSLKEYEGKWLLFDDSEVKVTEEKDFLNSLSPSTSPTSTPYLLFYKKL
Experiment: Inhibitors of USP1/UAF1: Pilot qHTS (AID 504865);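 also: rhodamine fluorescence freed from ubiquitin-rhodamine substrate followed over time; top concentration of the series differs between compounds; % is scaled to controls: 0 for no effect and ±100 for the full control effect; nearly all actives have a fitted effect of over 35% in size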
Settings: purified USP1/UAF1, Ub-rhodamine cleavage fluorescence; series mostly up to 114 µM
Records with an inconclusive call do not appear. The source made the active and inactive calls. Calls follow the shape of the dose curve; as a rule, active = well fitted inhibition curve with a large enough effect; inconclusive = small, poorly fitted or top-dose-only effect; inactive = flat fitted curve, though single readings scatter.
Assign a class; possible classes are active, inactive

What did this assay record as the result for CCC1(c2ccc(N)cc2)CCC(=O)NC1=O (stereo not drawn) ? inactive

What did this assay record as the result for O=C1Nc2ccc(Cl)cc2C(c2ccccc2Cl)=NC1O (stereo not drawn) ? inactive

What did this assay record as the result for Cc1cc(=O)n(-c2ccccc2)n1C ? inactive

What did this assay record as the result for CN1CCC(O)(c2ccc(F)cc2)C(C(=O)c2ccc(F)cc2)C1 (stereo not drawn) ? inactive

What did this assay record as the result for CC[N+](CC)(CC)CCOc1cccc(OCC[N+](CC)(CC)CC)c1OCC[N+](CC)(CC)CC ? inactive

What did this assay record as the result for CC(C)(C)NCC(O)c1ccccc1Cl (stereo not drawn) ? inactive

What did this assay record as the result for Cc1ncsc1CCCl ? inactive

What did this assay record as the result for O=C(CCCN1CCC2(CC1)C(=O)NCN2c1ccccc1)c1ccc(F)cc1 ? inactive

What did this assay record as the result for Clc1ccc2c(c1)C(c1ccccc1)=NCc1nncn1-2 ? inactive

What did this assay record as the result for C[C@]12CCC(=O)C=C1CC[C@@H]1[C@@H]2CC[C@]2(C)C(=O)CC[C@@H]12 ? inactive

What did this assay record as the result for CN1C(=O)CC(=O)N(c2ccccc2)c2cc(Cl)ccc21 ? inactive

What did this assay record as the result for COP(=S)(OC)Oc1ccc(S(=O)(=O)N(C)C)cc1 ? inactive

----------
Tested on: CP256
Assay: qHTS profiling for inhibitors of Plasmodium falciparum proliferation (AID 504749); also: nearly all actives have a fitted effect of over 60% in size
Conditions: P. falciparum in erythrocytes, SYBR Green DNA, 72 h; series mostly up to 28.7 µM
Procedure: NIH National Institute of Allergy and Infectious Diseases [NIAID] NIH Chemical Genomics Center [NCGC] […] Because mature erythrocytes lack DNA, only Plasmodium-derived DNA is detected. NCGC Assay Protocol Summary: The SYBR Green viability assay was adapted from a method described previously (Plouffe et al., 2008). […] The following morning, fluorescence intensity at 485(14) nm excitation and 535(25) nm emission wavelengths was measured on an EnVision (Perkin Elmer) plate reader. […]
Inconclusive results are not listed. Activity calls are given as the source filed them. Calls follow the shape of the dose curve; as a rule, active = well fitted inhibition curve with a large enough effect; inconclusive = small, poorly fitted or top-dose-only effect; inactive = flat fitted curve, though single readings scatter.
Assign a class; possible classes are active, inactive

Some solved cases for reference:
[[record]]
compound = "CCCC(C)(COC(N)=O)COC(N)=O"
classification = "inactive"

[[record]]
compound = "CC(C)(C)NCC(O)c1cc(Cl)c(N)c(C(F)(F)F)c1 (stereo unspecified)"
classification = "active"


What did this assay record as the result for O=C1c2ccccc2C(=O)c2ccccc21 ? inactive

What did this assay record as the result for NC(=O)c1cc([N+](=O)[O-])cc([N+](=O)[O-])c1 ? inactive

What did this assay record as the result for CN1C(=O)COc2c(C(=O)NC3CN4CCC3CC4)cc(Cl)cc21 (stereo unspecified) ? inactive

What did this assay record as the result for CN1C(=O)CC(=O)N(c2ccccc2)c2cc(Cl)ccc21 ? inactive

----------
Details: Ebola virus entry assay, reporter ratio channel; Channel type: primary unless noted
The source made the active and inactive calls.
Test Readout: outcome

// solved cases for outcome follow
[[record]]
compound = "CCc1cc(S(=O)(=O)O)c2cc(C(C)C)cccc1-2"
test_readout = "outcome"
obs_value = "inactive"

[[record]]
compound = "CC(C)(C)NCC(O)COc1cccc2c1C[C@H](O)[C@H](O)C2 (stereo not given in full)"
test_readout = "outcome"
obs_value = "inactive"

[[record]]
compound = "CC(C)(Sc1cc(C(C)(C)C)c(O)c(C(C)(C)C)c1)Sc1cc(C(C)(C)C)c(O)c(C(C)(C)C)c1"
test_readout = "outcome"
obs_value = "inactive"

[[record]]
compound = "CCN[C@@H](C)Cc1cccc(C(F)(F)F)c1"
test_readout = "outcome"
obs_value = "inactive"


We next turn to a different compound, shown below.
Would you kindly share the measured outcome for C#C[C@]1(O)CC[C@H]2[C@@H]3CCC4=CC(=O)CC[C@@H]4[C@H]3CC[C@@]21CC ? inactive

----------
Molecular target: Peroxisome proliferator-activated receptor delta (Homo sapiens) (UniProt Q03181)
Sequence (Q03181 whole entry, looked up): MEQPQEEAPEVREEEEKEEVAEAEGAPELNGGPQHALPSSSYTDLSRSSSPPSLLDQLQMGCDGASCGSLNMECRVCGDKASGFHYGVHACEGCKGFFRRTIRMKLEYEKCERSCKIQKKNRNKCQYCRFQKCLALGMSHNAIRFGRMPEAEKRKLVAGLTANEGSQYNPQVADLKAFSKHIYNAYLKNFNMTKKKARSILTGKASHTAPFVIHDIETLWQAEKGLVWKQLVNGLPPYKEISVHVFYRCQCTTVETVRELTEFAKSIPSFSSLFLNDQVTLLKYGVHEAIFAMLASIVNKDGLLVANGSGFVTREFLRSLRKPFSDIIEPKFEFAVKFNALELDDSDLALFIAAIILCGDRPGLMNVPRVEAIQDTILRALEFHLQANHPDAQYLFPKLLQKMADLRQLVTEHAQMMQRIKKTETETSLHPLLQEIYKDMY
Experiment: qHTS assay for small molecule agonists of peroxisome proliferator-activated receptor delta signaling (AID 588534);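 also: 0% = DMSO basal wells and 100% = positive control agonist at 10 µM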
Conditions: HEK293T PPARdelta-UAS-bla, beta-lactamase ratio, 18 h; series mostly up to 76.7 µM
Inconclusive results are not listed. The source made the active and inactive calls. The call rests on the fitted dose curve.
Test Readout: outcome

[[record]]
compound_smiles = "CC(=O)OCC(COC(C)=O)OC(C)=O"
test_readout = "outcome"
obs_value = "inactive"

[[record]]
compound_smiles = "O=C(N[C@H](CO)[C@H](O)c1ccc([N+](=O)[O-])cc1)C(Cl)Cl"
test_readout = "outcome"
obs_value = "inactive"

[[record]]
compound_smiles = "O=C(O)c1cc(O)c(O)c(O)c1"
test_readout = "outcome"
obs_value = "inactive"


----------
Experiment: Primary qHTS for inhibitors of nuclear receptor binding SET domain protein 2 (NSD2) in an isogenic RCH-ACV NSD2 p.E1099K mutant (9B) (AID 1645876); also: nearly all actives have a fitted effect of over 70% in size
Details: RCH-ACV (leukaemia line) NSD2 E1099K (9B) viability, CellTiter-Glo, 72 h; series mostly up to 44.9 µM
Inconclusive results are not listed. Activity calls are given as the source filed them. The call rests on the fitted dose curve; in most records, active means well fitted inhibition curve with a large enough effect; inconclusive means small, poorly fitted or top-dose-only effect; inactive means flat fitted curve, though single readings scatter.
Assign a class; possible classes are active, inactive

[[record]]
molecule = "CCC1(c2ccccc2)C(=O)N(COC)C(=O)N(COC)C1=O"
classification = "inactive"


What did this assay record as the result for C[C@H]1[C@@H]2Cc3ccc(O)cc3[C@@]1(C)CCN2C ? inactive

----------
Test: S16 Schwann cell PMP22 intronic element firefly luciferase assay (AID 624032); also: nearly all actives have a fitted effect of over 30% in size
Conditions: S16 rat Schwann cells, PMP22 element FLuc, 24 h; series mostly up to 57.5 µM
Results filed as inconclusive are left out. Active and inactive are the calls of the source. Calls come from the whole dose curve; as a rule, active = well fitted inhibition curve with a large enough effect; inconclusive = small, poorly fitted or top-dose-only effect; inactive = no such curve, though single readings can be large or run the other way.
Assign a class; possible classes are t = active, f = inactive

[[record]]
compound = "CCCC(C)(COC(N)=O)COC(N)=O"
classification = "f"


What did this assay record as the result for CN1C(=O)C(O)N=C(c2ccccc2)c2cc(Cl)ccc21 (configuration not stated) ? f

What did this assay record as the result for CC(C)(C)NCC(O)c1cc(Cl)c(N)c(C(F)(F)F)c1 (configuration not stated) ? f

What did this assay record as the result for COC1CC(=C(c2cccs2)c2cccs2)C[N+](C)(C)C1 (configuration not stated) ? f

What did this assay record as the result for C[C@]12CCC(=O)C=C1CC[C@@H]1[C@@H]2CC[C@]2(C)C(=O)CC[C@@H]12 ? f

What did this assay record as the result for Cc1nnc2n1-c1ccc(Cl)cc1C(c1ccccc1)=NC2 ? f

What did this assay record as the result for Cc1nnc2n1-c1ccc(Cl)cc1C(c1ccccc1Cl)=NC2 ? f

What did this assay record as the result for COc1c2c(cc3c1OCO3)CCN(C)C2 ? f

What did this assay record as the result for O=C(N/N=C/c1ccc([N+](=O)[O-])o1)c1cc([N+](=O)[O-])cc([N+](=O)[O-])c1O ? f

What did this assay record as the result for NC(=O)CC[C@@H]1NC(=O)[C@H](Cc2ccccc2)NC(=O)[C@H](Cc2ccc(O)cc2)NC(=O)[C@@H](N)CSSC[C@@H](C(=O)N2CCC[C@H]2C(=O)N[C@@H](CCCN=C(N)N)C(=O)NCC(N)=O)NC(=O)[C@H](CC(N)=O)NC1=O ? f

What did this assay record as the result for Clc1ccc(C(c2ccc(Cl)cc2)C(Cl)(Cl)Cl)cc1 ? t

What did this assay record as the result for C=CCc1ccc(O)c(OC)c1 ? f

What did this assay record as the result for O=C1Nc2ccc(Cl)cc2C(c2ccccc2)=NC1O (configuration not stated) ? f

What did this assay record as the result for C[C@]12CC[C@@H]3c4ccc(OC(=O)N(CCCl)CCCl)cc4CC[C@H]3[C@@H]1CC[C@@H]2O ? f

What did this assay record as the result for COP(=S)(OC)SCN1C(=O)c2ccccc2C1=O ? f

----------
Test: Primary qHTS to identify inhibitors of SARS-CoV-2 cell entry (AID 1645846); also: nearly all actives have a fitted effect of over 45% in size
Details: SARS-CoV-2 pseudovirus cell entry assay, luminescence; at 57.1 µM (top of the series) unless noted
Records with an inconclusive call do not appear.
Consider the following compounds and their measured activity change, negative = inhibition readings.
Express it in %; write the number only.

[[record]]
compound = "CCOc1ccc(NS(=O)(=O)c2ccc(N)cc2)nn1"
obs_value = -12.4

[[record]]
compound = "O=C(O)CSCC(=O)NC1CCSC1=O (configuration not stated)"
obs_value = -0.451

[[record]]
compound = "CC(C)=CCC1C(=O)N(c2ccccc2)N(c2ccccc2)C1=O"
obs_value = -3.84

[[record]]
compound = "NC(=O)c1ccc([N+](=O)[O-])cc1Cl"
obs_value = -5.3

[[record]]
compound = "COC(=O)/C=C\\C(=O)OC"
obs_value = -18.2


Would you kindly share the measured activity change, negative = inhibition for CCCCCCCCCCCC(=O)[O][Sn]([CH2]CCC)([CH2]CCC)[O]C(=O)CCCCCCCCCCC ? -23.2

Would you kindly share the measured activity change, negative = inhibition for CCOP(=S)(OCC)Oc1ccc2c(C)c(Cl)c(=O)oc2c1 ? 69.2

Would you kindly share the measured activity change, negative = inhibition for Cc1ncc(CO)c(CO)c1O ? -1.83

Would you kindly share the measured activity change, negative = inhibition for O=C(NC(Cc1cc(=O)[nH]c2ccccc12)C(=O)O)c1ccc(Cl)cc1 (configuration not stated) ? 1.86

Would you kindly share the measured activity change, negative = inhibition for COc1cccc(OC)c1C(=O)N[C@@H]1C(=O)N2[C@@H]1SC(C)(C)[C@@H]2C(=O)O ? -19.9

Would you kindly share the measured activity change, negative = inhibition for CN(CC1(C)CCCO1)S(=O)(=O)c1ccc(Cl)c(S(N)(=O)=O)c1 (configuration not stated) ? -32.6

Would you kindly share the measured activity change, negative = inhibition for CC(=O)OCC(COC(C)=O)OC(C)=O ? 0.643
